- Target Or System: rh beta tryptase (Homo sapiens)
- Construct: purchased Promega
- Measurement Notes: tryptase inhibition in vitro test (cleavage of N-p-tosyl-Gly-Pro-Lys-para-nitroaniline, p-nitroaniline measured at 405 nm)
- Format: biochemical
- Experimental Setup: rh beta tryptase 0.91 U/ml, substrate 0.6 mM, Tris HCl buffer with calcium and heparin, pH 7.4, 37° C., 5 minutes incubation; read-out: Tryptase-inhibiting activity
Structures can show the parent of a compound that is named as a salt.
Parameter Measured: IC50

1) Cn1c(CCc2ccc(C(=N)N)cc2)nc2cc(N(Cc3cccc4ccccc34)C(=O)CN3CCC(Oc4ccccn4)CC3)ccc21 [Example 16, dihydrochloride]
4 to 30 nM
2) Cn1c(CCc2ccc(C(=N)N)cc2)nc2cc(N(Cc3cccc4ccccc34)C(=O)CN3CCC(Cc4ccccn4)CC3)ccc21 [Example 20, dihydrochloride]
4 to 30 nM
3) Cn1c(CCc2ccc(C(=N)N)cc2)nc2cc(N(Cc3cccc4ccccc34)C(=O)NC3(Cc4ccccc4)CCNCC3)ccc21 [Example 77, hydrochloride]
4 to 30 nM
4) CN(C)CCCN(C)C(=O)N(Cc1cccc2ccccc12)c1ccc2c(c1)nc(CCc1ccc(C(=N)N)cc1)n2C [Example 78, hydrochloride]
31 to 1000 nM
5) Cn1c(CCc2ccc(C(=N)N)cc2)nc2cc(N(Cc3cccc4ccccc34)C(=O)CN3CCC(C(=O)c4ccccc4)CC3)ccc21 [Example 24, dihydrochloride]
0.5 to 3 nM

Let us move to another entry and its IC50.
Input line: Recorded IC50 of Cn1c(CCc2ccc(C(=N)N)cc2)nc2cc(N(Cc3cccc4ccccc34)C(=O)NCc3ccccc3)ccc21 [Example 5, Hydrochloride] , please.
Output line: 31 to 1000 nM

====

- Target Or System: rh beta tryptase (Homo sapiens, UniProt Q15661)
- Sequence (Q15661 31-275): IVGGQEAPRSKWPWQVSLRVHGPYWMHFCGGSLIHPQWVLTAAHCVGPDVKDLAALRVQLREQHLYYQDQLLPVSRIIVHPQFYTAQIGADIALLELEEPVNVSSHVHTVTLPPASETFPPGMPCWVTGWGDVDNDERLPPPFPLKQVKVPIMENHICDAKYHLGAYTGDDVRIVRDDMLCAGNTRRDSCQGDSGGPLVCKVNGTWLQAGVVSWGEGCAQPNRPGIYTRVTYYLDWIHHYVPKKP
- Measurement Notes: tryptase inhibition in vitro test (cleavage of N-p-tosyl-Gly-Pro-Lys-para-nitroaniline, p-nitroaniline measured at 405 nm)
- Experimental Setup: rh beta tryptase 0.91 U/ml, substrate 0.6 mM, Tris HCl buffer with calcium and heparin, pH 7.4, 37° C., 5 minutes incubation; read-out: Tryptase-inhibiting activity
pIC50: −log10 of the molar value. Structures can show the parent of a compound that is named as a salt.
Parameter Measured: pIC50

Before answering, review these 8 worked examples.
1) Cn1c(CCc2ccc(C(=N)N)cc2)nc2cc(N(Cc3cccc4ccccc34)C(=O)CN3CCC(Nc4cccc(Cl)c4)CC3)ccc21 [Example 11, dihydrochloride]
8.52 to 9.30
2) CN(C(=O)CN1CCC(Nc2cccc(Cl)c2)CC1)c1ccc2c(c1)nc(CCc1ccc(C(=N)N)cc1)n2C [Example 106, dihydrochloride]
8.52 to 9.30
3) CN(C(=O)CN1CCC(Nc2ccc(Cl)cc2Cl)CC1)c1ccc2c(c1)nc(CCc1ccc(C(=N)N)cc1)n2C [Example 32, dihydrochloride]
8.52 to 9.30
4) CN(C(=O)CN1CCC(Nc2ccccc2Cl)CC1)c1ccc2c(c1)nc(CCc1ccc(C(=N)N)cc1)n2C [Example 31, dihydrochloride]
8.52 to 9.30
5) Cn1c(CCc2ccc(C(=N)N)cc2)nc2cc(N(Cc3cccc4ccccc34)C(=O)CN3CCC(NC(=O)c4ccccn4)CC3)ccc21 [Example 7, dihydrochloride]
7.52 to 8.40
6) Cn1c(CCc2ccc(C(=N)N)cc2)nc2cc(N(Cc3cccc(N)c3)C(=O)CN3CCC(Nc4ccccn4)CC3)ccc21 [Example 55, dihydrochloride]
7.52 to 8.40
7) CN(C)c1ccc(CN(C(=O)CN2CCC(Nc3ccccn3)CC2)c2ccc3c(c2)nc(CCc2ccc(C(=N)N)cc2)n3C)c2ccccc12 [Example 51, dihydrochloride]
7.52 to 8.40
8) CN(c1ccccn1)C1CCN(CC(=O)N(Cc2cccc3ccccc23)c2ccc3c(c2)nc(CCc2ccc(C(=N)N)cc2)n3C)CC1 [Example 19, dihydrochloride]
7.52 to 8.40

Let us move to another entry and its pIC50.
Input line: Recorded pIC50 of CN(C(=O)CN1CCC(Nc2ccccc2OC(F)(F)F)CC1)c1ccc2c(c1)nc(CCc1ccc(C(=N)N)cc1)n2C [Example 39, dihydrochloride] , please.
Output line: 7.52 to 8.40

====

- Target Or System: rh beta tryptase (Homo sapiens)
- Measurement Notes: tryptase inhibition in vitro test (cleavage of N-p-tosyl-Gly-Pro-Lys-para-nitroaniline, p-nitroaniline measured at 405 nm)
- Experimental Setup: rh beta tryptase 0.91 U/ml, substrate 0.6 mM, Tris HCl buffer with calcium and heparin, pH 7.4, 37° C., 5 minutes incubation; read-out: Tryptase-inhibiting activity
Structures can show the parent of a compound that is named as a salt.
Catalogue of molecules with associated IC50

Before answering, review these 2 worked examples.
1. Cn1c(CCc2ccc(C(=N)N)cc2)nc2cc(N(Cc3cccc4ccccc34)C(=O)CN3CCC(Nc4ccc(Cl)cc4)CC3)ccc21 [Example 10, dihydrochloride]
0.5 to 3 nM
2. CN(C)c1ccc(NC2CCN(CC(=O)N(Cc3cccc4ccccc34)c3ccc4c(c3)nc(CCc3ccc(C(=N)N)cc3)n4C)CC2)cc1 [Example 13, trihydrochloride]
4 to 30 nM

Input line: Recorded IC50 of CN(C(=O)CN1CCC(N(C)c2ccc3ccccc3c2)CC1)c1ccc2c(c1)nc(CCc1ccc(C(=N)N)cc1)n2C [Example 34, dihydrochloride] , please.
Output line: 4 to 30 nM

Input line: Let us now turn to Cn1c(CCc2ccc(C(=N)N)cc2)nc2cc(N(Cc3ccncc3)C(=O)CN3CCC(Nc4ccccc4)CC3)ccc21 [Example 45, dihydrochloride]
Output line: 4 to 30 nM
